Please provide measured viability, T/C for the entries that follow.
system: MDA-MB-468 spheroids with HUVEC/MSC, viability; experiment: Anticancer human tumor MDA-MB-468 cell line growth inhibition [PI3K]; settings: second compound 1 µM; first compound 0.0316 µM; active compounds read low;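 also: spheroids exposed to agents for seven days before readout; 100% = DMSO vehicle control viability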
One number for each entry, in %.

// below: answered compounds
compound: CC(C)n1nc(-c2ccc3oc(N)nc3c2)c2c(N)ncnc21 + CC(Nc1ncnc2nc[nH]c12)c1cc2cccc(Cl)c2c(=O)n1-c1ccccc1
viability, T/C [%]: 49.6
//
compound: CC1(C)CCC(CN2CCN(c3ccc(C(=O)NS(=O)(=O)c4ccc(NCC5CCOCC5)c([N+](=O)[O-])c4)c(Oc4cnc5[nH]ccc5c4)c3)CC2)=C(c2ccc(Cl)cc2)C1 + COc1c(OCCCN2CCOCC2)ccc2c3n(c(=NC(=O)c4cnc(N)nc4)nc12)CCN3
viability, T/C [%]: 4.5
//
compound: CC(=O)c1c(C)c2cnc(Nc3ccc(N4CCNCC4)cn3)nc2n(C2CCCC2)c1=O + CC(Nc1ncnc2nc[nH]c12)c1cc2cccc(Cl)c2c(=O)n1-c1ccccc1
viability, T/C [%]: 76.2
//
compound: CC(C)NCC(C(=O)N1CCN(c2ncnc3c2C(C)CC3O)CC1)c1ccc(Cl)cc1 (stereo not given) + CC(Nc1ccc2c(c1)OCCn1cc(N3C(=O)OCC3C(F)F)nc1-2)C(N)=O
viability, T/C [%]: 82.5

# evaluate next
stdin: Notebook entry, MDA-MB-468 spheroids with HUVEC/MSC, viability assay: viability, T/C of CCCS(=O)(=O)Nc1ccc(F)c(C(=O)c2c[nH]c3ncc(-c4ccc(Cl)cc4)cc23)c1F + Cc1nc(NC(=O)N2CCCC2C(N)=O)sc1-c1ccnc(C(C)(C)C(F)(F)F)c1 = ?
stdout: 113

Each recorded value in this set is attributed to PubChem BioAssay AID1963960.
